target: Plk1 (Homo sapiens (Human)); assay: Plk1 Cellular Assay - Mitotic Arrest Assay; type: cell-based; conditions: Hela cells, immunofluorescence microscopy, 24 hours post-treatment
Sequence (P53350 whole entry): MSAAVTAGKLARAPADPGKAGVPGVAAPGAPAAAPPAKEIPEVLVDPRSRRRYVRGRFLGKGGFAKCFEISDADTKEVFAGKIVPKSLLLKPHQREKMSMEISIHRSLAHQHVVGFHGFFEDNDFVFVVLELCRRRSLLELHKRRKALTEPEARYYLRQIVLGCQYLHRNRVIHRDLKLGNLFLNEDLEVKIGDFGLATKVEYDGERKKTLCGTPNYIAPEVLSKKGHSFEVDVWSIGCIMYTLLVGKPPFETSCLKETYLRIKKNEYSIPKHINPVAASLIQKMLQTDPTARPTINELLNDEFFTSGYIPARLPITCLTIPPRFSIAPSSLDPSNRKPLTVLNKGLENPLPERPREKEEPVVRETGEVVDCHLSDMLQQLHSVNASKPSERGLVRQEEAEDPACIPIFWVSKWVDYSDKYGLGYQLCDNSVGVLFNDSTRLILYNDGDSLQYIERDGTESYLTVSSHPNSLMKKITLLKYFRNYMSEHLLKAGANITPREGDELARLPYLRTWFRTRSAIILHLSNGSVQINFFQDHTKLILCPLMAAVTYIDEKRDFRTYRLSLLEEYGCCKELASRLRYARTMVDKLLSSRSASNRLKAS
measurement_name: mitotic arrest (phospho H3 positivity)

INSERT INTO results (compound_string, measurement_name, experimental_result) VALUES
  ('COc1cc(N(C)CCCO)ccc1Nc1ncc2c(n1)N(C1CCCC1)CCC(=O)N2C', 'mitotic arrest (phospho H3 positivity)', 'do not'),
  ('COc1cc(N(C)CCO)ccc1Nc1ncc2c(n1)N(C1CCCC1)CCC(=O)N2C', 'mitotic arrest (phospho H3 positivity)', 'do not'),
  ('COc1cc(N2CCC(O)CC2)ccc1Nc1ncc2c(n1)N(C1CCCC1)CCC(=O)N2C', 'mitotic arrest (phospho H3 positivity)', 'do not');
